biological target: human PCSK9 / human LDLR EGFa domain interaction (Homo sapiens (Human), UniProt Q8NBP7); assay: TR-FRET assay of inhibition of the PCSK9-LDLR protein-protein interaction; type: binding; conditions: TR-FRET, 20 nM human PCSK9, 20 nM human LDLR EGFa domain, 2 hours room temperature; read-out: IC50
Sequence (Q8NBP7 153-692): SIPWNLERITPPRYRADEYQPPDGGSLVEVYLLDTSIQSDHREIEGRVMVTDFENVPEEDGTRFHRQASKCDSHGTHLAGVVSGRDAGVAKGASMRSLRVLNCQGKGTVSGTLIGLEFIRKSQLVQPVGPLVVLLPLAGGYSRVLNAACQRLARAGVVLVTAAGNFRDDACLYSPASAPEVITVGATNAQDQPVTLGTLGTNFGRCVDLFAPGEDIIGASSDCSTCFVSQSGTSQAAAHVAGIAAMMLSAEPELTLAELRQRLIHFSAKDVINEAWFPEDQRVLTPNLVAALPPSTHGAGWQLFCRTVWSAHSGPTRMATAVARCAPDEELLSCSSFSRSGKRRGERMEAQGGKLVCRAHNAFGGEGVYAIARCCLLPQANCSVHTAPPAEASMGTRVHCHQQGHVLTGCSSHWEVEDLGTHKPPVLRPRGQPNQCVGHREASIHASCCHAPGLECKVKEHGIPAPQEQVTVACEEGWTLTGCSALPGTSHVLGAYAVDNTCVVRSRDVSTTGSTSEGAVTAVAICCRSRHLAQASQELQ
Sequence (Q8NBP7 31-152 partner): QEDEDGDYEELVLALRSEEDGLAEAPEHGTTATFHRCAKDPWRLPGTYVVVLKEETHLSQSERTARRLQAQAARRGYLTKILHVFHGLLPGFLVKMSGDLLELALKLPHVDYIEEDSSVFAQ
Starred links: 1 amine or outer side, 2 acyl side, 3 side chain; linkers in the order of their positions; H or OH if unused. Positions of bridges follow the written chain, without caps; N, C: chain ends. Non-standard residues stand in square brackets, D forms with d. Residues, ends and D or L forms follow the SMILES beside them. Triazole bridges read from a SMILES are 1,4-linked. Pro(trans-4-cHex) = O=C(O)[C@@H]1C[C@@H](C2CCCCC2)CN1; Phe(4-COOH) = N[C@@H](Cc1ccc(C(=O)O)cc1)C(=O)O; Trp(5-F) = N[C@@H](Cc1c[nH]c2ccc(F)cc12)C(=O)O; Phe(4-CH2NH2) = NCc1ccc(C[C@H](N)C(=O)O)cc1; Lys(N3) = [N-]=[N+]=NCCCC[C@H](N)C(=O)O; mXylylene = c1cc(C[*:1])cc(C[*:2])c1; Adipoyl = O=C(CCCCC(=O)[*:2])[*:1]; αMeP = C[C@@]1(C(=O)O)CCCN1; dPra = C#CC[C@@H](N)C(=O)O; Ava = NCCCCC(=O)O; Mpa = O=C(O)CCS
IC50 by entry:

**Query** Report IC50 for C[C@H]1NC(=O)[C@H](Cc2cnc[nH]2)NC(=O)[C@H](CC(=O)O)NC(=O)[C@H](Cc2c[nH]c3ccc(F)cc23)NC(=O)[C@H](Cc2c[nH]c3ccc(F)cc23)NC(=O)CNC(=O)[C@H](CCCCN)NC(=O)CCSCc2cccc(c2)CSC[C@@H](C(N)=O)NC(=O)[C@]2(C)CCCN2C1=O [Compound 319] ([Mpa]KG[Trp(5-F)][Trp(5-F)]DH[dA][αMeP]C-NH2; linker 1-10 via mXylylene) tested on human PCSK9 / human LDLR EGFa domain interaction (Homo sapiens (Human), UniProt Q8NBP7).
**Result** 100 to 1000 nM

**Query** Report IC50 for C[C@@H]1NC(=O)CCCCC(=O)NCc2ccc(cc2)C[C@@H](C(N)=O)NC(=O)[C@]2(C)CCCN2C(=O)[C@H](Cc2ccc(O)cc2)NC(=O)[C@H](Cc2cnc[nH]2)NC(=O)[C@H](CC(=O)O)NC(=O)[C@H](Cc2c[nH]c3ccc(F)cc23)NC(=O)[C@H](Cc2c[nH]c3ccc(F)cc23)NC(=O)CNC1=O [Compound 370] (AG[Trp(5-F)][Trp(5-F)]DHY[αMeP][Phe(4-CH2NH2)]-NH2; linker N-9 via Adipoyl) tested on human PCSK9 / human LDLR EGFa domain interaction (Homo sapiens (Human), UniProt Q8NBP7).
**Result** 0.1 to 100 nM

**Query** Report IC50 for COc1ccc(C[C@@H]2NC(=O)[C@H](Cc3cnc[nH]3)NC(=O)[C@H](CC(=O)O)NC(=O)[C@H](Cc3c[nH]c4ccc(F)cc34)NC(=O)[C@H](Cc3c[nH]c4ccc(F)cc34)NC(=O)[C@@H](C)NC(=O)CCCCNC(=O)c3ccc(cc3)C[C@@H](C(N)=O)NC(=O)[C@]3(C)CCCN3C2=O)cc1 [Compound 380] ([Ava][dA][Trp(5-F)][Trp(5-F)]DHY(Me)[αMeP][Phe(4-COOH)]-NH2; lactam N-9) tested on human PCSK9 / human LDLR EGFa domain interaction (Homo sapiens (Human), UniProt Q8NBP7).
**Result** 21000 to 50000 nM

**Query** Report IC50 for NCCCC[C@@H]1NC(=O)CCSCc2cccc(c2)CSC[C@@H](C(N)=O)NC(=O)[C@@H]2C[C@@H](C3CCCCC3)CN2C(=O)[C@H](Cc2ccc(O)cc2)NC(=O)[C@H](Cc2c[nH]cn2)NC(=O)[C@H](CC(=O)O)NC(=O)[C@H](Cc2c[nH]c3ccc(F)cc23)NC(=O)[C@H](Cc2c[nH]c3ccc(F)cc23)NC(=O)CNC1=O [Compound 304] ([Mpa]KG[Trp(5-F)][Trp(5-F)]DHY[Pro(trans-4-cHex)]C-NH2; linker 1-10 via mXylylene) tested on human PCSK9 / human LDLR EGFa domain interaction (Homo sapiens (Human), UniProt Q8NBP7).
**Result** 21000 to 50000 nM

---
**Query** Report IC50 for CC(=O)N[C@@H]1Cc2cn(nn2)CCCC[C@@H](C(N)=O)NC(=O)[C@]2(C)CCCN2C(=O)[C@H](Cc2ccc(O)cc2)NC(=O)[C@H](Cc2cnc[nH]2)NC(=O)[C@H](CC(=O)O)NC(=O)[C@H](Cc2c[nH]c3ccc(F)cc23)NC(=O)[C@H](Cc2c[nH]c3ccc(F)cc23)NC(=O)CNC1=O [Compound 336] (Ac-[dPra]G[Trp(5-F)][Trp(5-F)]DHY[αMeP][Lys(N3)]-NH2; triazole 1-9) tested on human PCSK9 / human LDLR EGFa domain interaction (Homo sapiens (Human), UniProt Q8NBP7).
**Result** 0.1 to 100 nM
